Cited source for all entries: paper PMC9352332

- tested.target: ALR2 (Homo sapiens, UniProt P15121)
pIC50: −log10 of the molar value.
Entries and their pIC50 values follow.

molecule	pIC50
Cc1ccc(O)c(C=NNC(=S)Nc2ccccc2)c1 [3a]	5.30
COc1cccc(NC(=S)NN=Cc2cc(C)ccc2O)c1 [3c]	5.85
Cc1ccc(O)c(C=NNC(=S)Nc2ccc(Br)cc2)c1 [3g]	5.08
Cc1ccc(O)c(C=NNC(=S)Nc2ccc(Cl)cc2)c1 [3l]	5.42
Cc1ccc(O)c(C=NNC(=S)Nc2ccc(C(C)C)cc2)c1 [3n]	5.51
Cc1ccc(O)c(C=NNC(=S)Nc2ccc(N(C)C)cc2)c1 [3p]	4.97

###

- Test system: advanced glycation end products (AGEs)
- measurement.protocol: Bovine serum albumin glycation
- Format: biochemical
- protocol.conditions: BSA 1 mg mL–1, 0.5 M glucose, test compound (1 mM), pH 7.4, 50 °C, 4 days; AG positive control 100 μM
Please note: yes applies when % inhibition of AGEs (advanced glycation end-product formation) is 60% or greater, and no applies otherwise.

mol	group.label
Cc1ccc(O)c(C=NNC(=S)Nc2ccc(N(C)C)cc2)c1	yes
Cc1ccc(O)c(C=NNC(=S)Nc2c(C)cccc2C)c1	yes
Cc1ccc(O)c(C=NNC(=S)Nc2ccc(C(C)C)cc2)c1	yes
Cc1ccc(NC(=S)NN=Cc2cc(C)ccc2O)c(C)c1	no
Cc1ccc(O)c(C=NNC(=S)NCc2ccccc2)c1	no
Cc1ccc(O)c(C=NNC(=S)Nc2ccccc2C)c1	no
COc1cccc(NC(=S)NN=Cc2cc(C)ccc2O)c1	yes
Cc1ccc(O)c(C=NNC(=S)Nc2ccc(Br)cc2)c1	no

###

- System: advanced glycation end products (AGEs)
- measurement.protocol: Bovine serum albumin glycation
- Format: biochemical
- protocol.conditions: BSA 1 mg mL–1, 0.5 M glucose, test compound (1 mM), pH 7.4, 50 °C, 4 days; AG positive control 100 μM
observable: % inhibition of AGEs (advanced glycation end-product formation)

molecule	experimental.result
N=C(N)NN [6-AG, 6-Aminoguanidine, reference compound]	79.34%
Cc1ccc(O)c(C=NNC(=S)NCc2ccc(Cl)cc2)c1 [3d]	62.81%
Cc1ccc(O)c(C=NNC(=S)Nc2ccc(Cl)cc2)c1 [3l]	56.61%

###

Hi! I'm sharing some IC50 results obtained with UniProt:P15121.
observable: IC50 (µM)

mol	experimental.result
Cc1ccc(NC(=S)NN=Cc2cc(C)ccc2O)c(C)c1	2.55
Cc1ccc(O)c(C=NNC(=S)Nc2ccccc2C)c1	1.96
Cc1ccc(O)c(C=NNC(=S)Nc2ccc(F)cc2F)c1	4.95
Cc1ccc(O)c(C=NNC(=S)NCCc2ccccc2)c1	12.1
Cc1ccc(NC(=S)NN=Cc2cc(C)ccc2O)cc1	3.8
Cc1ccc(O)c(C=NNC(=S)Nc2c(C)cccc2C)c1	2.06
Cc1ccc(O)c(C=NNC(=S)Nc2cccc(F)c2)c1	14

###

- tested.target: ALR1 (Bos taurus)
- Sequence (Q3ZCJ2 whole entry): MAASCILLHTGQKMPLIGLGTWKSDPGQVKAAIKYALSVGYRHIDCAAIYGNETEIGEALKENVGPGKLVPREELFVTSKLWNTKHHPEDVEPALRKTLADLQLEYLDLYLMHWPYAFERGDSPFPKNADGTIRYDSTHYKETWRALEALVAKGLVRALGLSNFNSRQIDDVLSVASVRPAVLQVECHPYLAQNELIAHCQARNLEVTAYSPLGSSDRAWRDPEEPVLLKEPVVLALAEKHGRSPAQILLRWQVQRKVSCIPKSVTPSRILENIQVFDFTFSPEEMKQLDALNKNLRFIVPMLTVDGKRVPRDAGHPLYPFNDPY
pIC50: −log10 of the molar value.
Entries and their pIC50 values follow.

molecule	pIC50
Cc1ccc(O)c(C=NNC(=S)Nc2c(C)cccc2C)c1 [3i]	5.67
Cc1ccc(O)c(C=NNC(=S)Nc2ccccc2)c1 [3a]	5.29
Cc1ccc(O)c(C=NNC(=S)Nc2ccccc2C)c1 [3m]	5.34
Cc1ccc(NC(=S)NN=Cc2cc(C)ccc2O)cc1 [3h]	4.80

###

- System: advanced glycation end products (AGEs)
- measurement.protocol: Bovine serum albumin glycation
- Type: biochemical
- protocol.conditions: BSA 1 mg mL–1, 0.5 M glucose, test compound (1 mM), pH 7.4, 50 °C, 4 days; AG positive control 100 μM
observable: % inhibition of AGEs (advanced glycation end-product formation)

molecule	experimental.result
Cc1ccc(O)c(C=NNC(=S)Nc2ccccc2)c1 [3a]	59.12%
Cc1ccc(O)c(C=NNC(=S)NC2CCCCC2)c1 [3f]	59.86%
Cc1ccc(O)c(C=NNC(=S)Nc2ccc(F)cc2F)c1 [3j]	61.60%
